- study system: Histone acetyltransferase p300 (Homo sapiens, UniProt Q09472)
- Sequence (Q09472 whole entry, the tested form may be a part): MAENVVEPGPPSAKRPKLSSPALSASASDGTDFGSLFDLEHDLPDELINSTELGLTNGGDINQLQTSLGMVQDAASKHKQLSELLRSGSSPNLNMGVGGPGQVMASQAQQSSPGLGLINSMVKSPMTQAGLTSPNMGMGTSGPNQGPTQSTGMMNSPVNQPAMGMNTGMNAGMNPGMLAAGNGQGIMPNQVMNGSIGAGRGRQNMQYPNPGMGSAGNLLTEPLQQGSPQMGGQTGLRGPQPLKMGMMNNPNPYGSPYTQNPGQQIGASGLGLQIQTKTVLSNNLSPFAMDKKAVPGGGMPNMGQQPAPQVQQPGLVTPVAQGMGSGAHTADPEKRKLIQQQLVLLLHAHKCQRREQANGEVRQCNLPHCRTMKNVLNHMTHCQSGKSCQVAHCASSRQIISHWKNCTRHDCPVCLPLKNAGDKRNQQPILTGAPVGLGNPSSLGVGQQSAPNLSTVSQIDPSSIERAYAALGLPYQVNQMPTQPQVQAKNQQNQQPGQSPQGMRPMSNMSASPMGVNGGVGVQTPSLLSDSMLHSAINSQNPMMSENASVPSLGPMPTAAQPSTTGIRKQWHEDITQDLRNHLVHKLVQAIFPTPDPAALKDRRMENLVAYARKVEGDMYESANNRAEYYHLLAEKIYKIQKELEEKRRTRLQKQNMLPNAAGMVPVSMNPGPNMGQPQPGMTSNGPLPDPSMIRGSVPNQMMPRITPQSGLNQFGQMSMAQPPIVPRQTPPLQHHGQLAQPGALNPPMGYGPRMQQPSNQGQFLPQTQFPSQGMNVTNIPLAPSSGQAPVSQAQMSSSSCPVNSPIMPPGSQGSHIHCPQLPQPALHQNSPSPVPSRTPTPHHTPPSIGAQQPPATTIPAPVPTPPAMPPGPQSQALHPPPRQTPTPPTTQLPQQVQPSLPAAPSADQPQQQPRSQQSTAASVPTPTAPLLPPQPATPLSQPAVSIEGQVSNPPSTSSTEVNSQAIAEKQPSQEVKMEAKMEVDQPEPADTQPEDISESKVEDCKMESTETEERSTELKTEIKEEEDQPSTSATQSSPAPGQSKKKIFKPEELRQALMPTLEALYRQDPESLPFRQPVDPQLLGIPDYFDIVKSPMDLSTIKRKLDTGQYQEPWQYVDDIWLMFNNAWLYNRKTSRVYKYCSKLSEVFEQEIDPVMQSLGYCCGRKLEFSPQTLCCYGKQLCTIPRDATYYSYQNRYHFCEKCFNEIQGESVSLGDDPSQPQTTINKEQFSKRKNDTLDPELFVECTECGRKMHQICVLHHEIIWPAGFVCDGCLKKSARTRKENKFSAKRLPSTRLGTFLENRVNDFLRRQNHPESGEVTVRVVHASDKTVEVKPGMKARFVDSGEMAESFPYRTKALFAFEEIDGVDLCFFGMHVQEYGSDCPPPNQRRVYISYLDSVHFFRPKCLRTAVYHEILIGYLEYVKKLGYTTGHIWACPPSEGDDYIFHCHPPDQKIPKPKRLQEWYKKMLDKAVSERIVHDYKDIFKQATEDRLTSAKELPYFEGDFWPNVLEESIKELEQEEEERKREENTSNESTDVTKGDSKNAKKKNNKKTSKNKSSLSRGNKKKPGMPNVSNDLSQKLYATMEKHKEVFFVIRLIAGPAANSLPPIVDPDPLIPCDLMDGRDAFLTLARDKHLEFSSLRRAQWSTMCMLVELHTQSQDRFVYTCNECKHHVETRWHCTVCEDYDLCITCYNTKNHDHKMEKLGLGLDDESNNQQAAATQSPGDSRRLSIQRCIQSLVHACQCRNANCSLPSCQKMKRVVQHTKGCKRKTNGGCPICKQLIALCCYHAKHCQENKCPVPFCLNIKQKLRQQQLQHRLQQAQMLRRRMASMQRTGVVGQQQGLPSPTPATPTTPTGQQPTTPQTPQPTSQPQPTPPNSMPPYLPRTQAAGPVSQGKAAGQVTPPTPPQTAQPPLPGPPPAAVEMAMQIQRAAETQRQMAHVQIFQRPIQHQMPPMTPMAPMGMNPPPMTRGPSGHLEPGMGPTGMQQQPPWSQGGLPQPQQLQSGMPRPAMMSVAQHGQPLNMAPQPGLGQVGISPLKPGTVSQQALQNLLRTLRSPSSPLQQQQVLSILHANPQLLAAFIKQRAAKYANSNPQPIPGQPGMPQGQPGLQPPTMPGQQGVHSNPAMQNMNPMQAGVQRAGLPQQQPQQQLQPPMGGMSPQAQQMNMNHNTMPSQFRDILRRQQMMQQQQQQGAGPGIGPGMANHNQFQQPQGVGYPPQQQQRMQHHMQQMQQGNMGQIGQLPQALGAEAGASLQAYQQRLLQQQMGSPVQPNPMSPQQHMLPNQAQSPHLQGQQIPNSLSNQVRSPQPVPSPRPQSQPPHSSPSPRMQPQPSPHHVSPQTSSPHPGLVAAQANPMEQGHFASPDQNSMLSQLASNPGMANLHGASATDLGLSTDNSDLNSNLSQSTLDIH
- test name: Binding affinity to recombinant P300 CH1 domain assessed as dissociation constant by surface plasmon resonance analysis
recorded metric: Kd
# output: numeric value plus its unit

## Input Report Kd, nothing else, for this compound: COc1ccc(S(=O)(=O)N(Cc2ccc3c(c2)C=CC(C)(C)O3)c2ccccc2)cc1OC
## Output 345 nM

Hello, the source for this data is ChEMBL document CHEMBL2169864, in case you need it.
